Every entry's value here was drawn from paper PMC2553842.

target desc: OA1 (Homo sapiens)
Sequence (P51810 whole entry): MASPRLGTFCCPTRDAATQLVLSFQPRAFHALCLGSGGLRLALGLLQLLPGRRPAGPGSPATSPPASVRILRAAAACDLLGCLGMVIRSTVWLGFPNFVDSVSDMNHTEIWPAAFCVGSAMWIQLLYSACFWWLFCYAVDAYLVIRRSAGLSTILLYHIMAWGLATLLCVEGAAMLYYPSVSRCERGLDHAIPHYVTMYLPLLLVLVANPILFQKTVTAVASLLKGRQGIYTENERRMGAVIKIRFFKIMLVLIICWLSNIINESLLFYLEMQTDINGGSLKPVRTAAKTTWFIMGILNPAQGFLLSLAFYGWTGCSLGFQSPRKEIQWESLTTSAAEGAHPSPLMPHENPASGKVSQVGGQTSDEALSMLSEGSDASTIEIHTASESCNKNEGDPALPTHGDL
assay remarks: radioligand saturation binding ([3H]-L-DOPA) on OA1-transfected CHO cells, with Scatchard analysis; supported by calcium response and beta-arrestin recruitment
assay readout: Kd (µM)
Numbers only, in µM.

Inquiry: Specify reported Kd for the molecule shown: N[C@@H](Cc1ccc(O)c(O)c1)C(=O)O
Reply text: 9.35
